Each recorded value in this set is attributed to patent US9828375B2.

# target system: FGFR2 (Homo sapiens, UniProt P21802)
# Sequence (P21802 22-821): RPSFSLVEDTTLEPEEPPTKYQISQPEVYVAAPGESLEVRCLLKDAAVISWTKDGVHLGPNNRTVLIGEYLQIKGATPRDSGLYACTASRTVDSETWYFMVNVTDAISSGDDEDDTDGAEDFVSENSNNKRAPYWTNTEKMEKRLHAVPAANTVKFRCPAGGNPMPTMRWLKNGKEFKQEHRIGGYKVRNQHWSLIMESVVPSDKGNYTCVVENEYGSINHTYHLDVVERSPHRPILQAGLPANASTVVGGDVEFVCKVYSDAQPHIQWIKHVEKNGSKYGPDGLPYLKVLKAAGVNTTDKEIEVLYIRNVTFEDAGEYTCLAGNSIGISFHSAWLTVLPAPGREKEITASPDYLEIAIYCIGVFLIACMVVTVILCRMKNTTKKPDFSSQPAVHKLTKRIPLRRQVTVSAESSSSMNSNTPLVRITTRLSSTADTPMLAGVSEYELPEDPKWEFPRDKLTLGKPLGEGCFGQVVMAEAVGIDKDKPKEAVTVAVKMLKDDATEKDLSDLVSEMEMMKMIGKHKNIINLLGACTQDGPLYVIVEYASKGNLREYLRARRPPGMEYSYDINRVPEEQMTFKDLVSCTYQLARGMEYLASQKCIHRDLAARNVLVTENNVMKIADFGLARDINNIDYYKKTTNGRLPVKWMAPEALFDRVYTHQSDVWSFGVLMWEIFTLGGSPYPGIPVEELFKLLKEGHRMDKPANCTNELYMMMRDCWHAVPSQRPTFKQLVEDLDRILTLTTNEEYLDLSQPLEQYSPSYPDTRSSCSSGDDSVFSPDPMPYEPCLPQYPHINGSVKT
# test protocol: Kinase inhibition activity test, isotope labeling: FGFR2
# Format: biochemical
# experimental context: test compound at a concentration of 10 μM
Each entry below carries its recorded Activity inhibition rate FGFR2 (h).

{"compound smiles": "CC(C)(C)c1cc(NC(=O)Nc2ccc(Oc3ncnc4[nH]ncc34)cc2)on1", "Activity inhibition rate FGFR2 (h)": ">50%"}
{"compound smiles": "CC(C)(C)c1cc(NC(=O)Nc2ccc(Oc3ncnc4[nH]ncc34)cc2)n(-c2ccccc2)n1", "Activity inhibition rate FGFR2 (h)": ">50%"}
{"compound smiles": "CC(C)(C)c1cc(NC(=O)Nc2ccc(Sc3ncnc4[nH]ncc34)cc2)no1", "Activity inhibition rate FGFR2 (h)": ">50%"}
